log10(MIC) values, listed per item
- Tested on: Providencia
- ASSAY PROCEDURE: Minimum inhibitory concentration required for antibacterial activity against Providencia
- Type: functional
// units: µg/mL (pre-log); metric: MIC; scale: log10

// known answers, use as guide
C[C@@H](O)[C@H]1C(=O)N2C(C(=O)O)=C(SC[C@H](N)C(=O)O)S[C@H]12	1.63
C[C@@H](O)[C@H]1C(=O)N2C(C(=O)O)=C(CSC[C@@H](N)C(=O)O)S[C@H]12	0.30
C[C@@H](O)[C@H]1C(=O)N2C(C(=O)O)=C(CC[C@H](N)C(=O)O)S[C@H]12	1.75
C[C@@H](N)C1=C(C(=O)O)N2C(=O)[C@H]([C@@H](C)O)[C@H]2S1	1.75
C[C@@H](O)[C@H]1C(=O)N2C(C(=O)O)=C(CN)S[C@H]12	0.90

Problem: GET /values?readout=log10(MIC)&item= C[C@@H](O)[C@H]1C(=O)N2C(C(=O)O)=C(SCCOC(N)=O)S[C@H]12
Result: -0.06

Problem: GET /values?readout=log10(MIC)&item= C[C@H](N)C1=C(C(=O)O)N2C(=O)[C@H]([C@@H](C)O)[C@H]2S1
Result: 1.81

Problem: GET /values?readout=log10(MIC)&item= CSC[C@@H](N)C1=C(C(=O)O)N2C(=O)[C@H]([C@@H](C)O)[C@H]2S1
Result: 0.96

###

MIC values, listed per item
- System: Salmonella
- ASSAY PROCEDURE: Minimum inhibitory concentration required for antibacterial activity against Salmonella
- Format: functional
In your response, put the unit directly after the numeric value.

// known answers, use as guide
C[C@@H](O)[C@H]1C(=O)N2C(C(=O)O)=C(CSC[C@@H](N)C(=O)O)S[C@H]12	0.25 µg/mL
CSCC[C@H](N)C1=C(C(=O)O)N2C(=O)[C@H]([C@@H](C)O)[C@H]2S1	10.1 µg/mL
C[C@@H](O)[C@H]1C(=O)N2C(C(=O)O)=C(SC[C@H](N)C(=O)O)S[C@H]12	5.28 µg/mL
C[C@@H](N)C1=C(C(=O)O)N2C(=O)[C@H]([C@@H](C)O)[C@H]2S1	5.04 µg/mL

Problem: GET /values?readout=MIC&item= C[C@@H](O)[C@H]1C(=O)N2C(C(=O)O)=C(CC[C@@H](N)C(=O)O)S[C@H]12
Result: 1 µg/mL

###

- Tested on: Providencia
- ASSAY PROCEDURE: Minimum inhibitory concentration required for antibacterial activity against Providencia
- Assay type: functional
READOUT LABEL: MIC (mg/L)
Note: unit mg/L is implicit; provide only the numeric part.

CSC[C@H](N)C1=C(C(=O)O)N2C(=O)[C@H]([C@@H](C)O)[C@H]2S1	97
C[C@@H](O)[C@H]1C(=O)N2C(C(=O)O)=C(CSC[C@H](N)C(=O)O)S[C@H]12	13.9

With those in mind, consider the next molecule.
Problem: Test system Providencia; read-out MIC; what value for C[C@@H](O)[C@H]1C(=O)N2C(C(=O)O)=C(COC(N)=O)S[C@H]12 [RITIPENEM] ?
Result: 2.3
